target: T1, HIS-tagged B Lymphocyte Stimulator (human, UniProt Q9Y275 71-285); experiment: BIAcore, periplasmic scFv over high density HIS-BLyS surface
T1 construct: Expressed in E. coli; also called HIS-B Lymphocyte Stimulator; histidine-tagged B Lymphocyte Stimulator; not shown: histidine tag from the pQE9 vector
T1 sequence (Q9Y275 71-285): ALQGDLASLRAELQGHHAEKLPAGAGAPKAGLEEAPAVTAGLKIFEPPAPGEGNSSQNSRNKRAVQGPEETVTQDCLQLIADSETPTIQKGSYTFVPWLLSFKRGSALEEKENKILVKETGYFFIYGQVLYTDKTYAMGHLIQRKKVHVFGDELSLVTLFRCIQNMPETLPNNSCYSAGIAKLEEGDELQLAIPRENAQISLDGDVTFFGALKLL
endpoint: binding result

[
  {
    "binder": "I084C04 (scFv) scFv: VQLVQSGAEVKKPGASVKVSCKASGYTFTSYGISWVRQAPGQGLEWMGWINPNSGGTNYAQKFQGRVTMTRDTSISTAYMELSRLRSDDTAVYYCARNLWGLDYWGKGTMVTVSSGGGGSGGGGSGGGGSSELTQDPAVSVALGQTVRITCQGDSLRSYYASWYQQKPGQAPVLVIYGKNNRPSGIPDRFSGSSSGNTASLTITGAQAEDEADYYCNSRDSSGNHVVFGGGTKLTVLG",
    "val": "binds"
  },
  {
    "binder": "I082A05 (scFv) scFv: QVQLQQSGGGVVQPGRSLRLSCAASGFTYSSYAMHWVRQAPGKGLEWVAVISYDGSIKYYADSVKGRFTISRDNSKNTLYLQMNSLRAEDTAVYYCARDLDFDYWGKGTLVTVSSGGGGSGGGGSGGGGSQSVLTQPPSVSAAPGQKVTISCSGSTSNIGNNYVSWYQQHPGKAPKFMIYDVSKRPSGVSNRFSGSKSGNTASLTISGVQAEDEADYYCSSYTSASTVIFGGGTKLTVLG",
    "val": "binds"
  },
  {
    "binder": "I080B01 (scFv) scFv: QVQLVQSGAEVKKPGASVKVSCKASGYTFTNYYMHWVRQAPGQGLEWMGIINPRDVSTTYAQKFQGRATMTRDTSTSTVYMELNSLRSEDTAVYYCAREYSGYHYVEGGSYAMDVWGQGTMVTVSSGGGGSGGGGSGGGGSALSYVLTQPPSASGTPGQRVTITCSGSSSNIGNYYVNWYQQVSGTAPKLIIYRNNQRPSGVPDRFSGSKSGASASLAISGLRSEDEADYFCAAWDDSLREFVFGTGTKVTVLG",
    "val": "binds"
  }
]
